molecular target: ZmDRIK1-R187-P492 (Zea mays); construct: kinase domain, R187-P492; assay: biochemical; conditions: read-out: dTm B, DSF, Boltzmann fit, 0.1% DMSO
Sequence (C0P4K9 1-514): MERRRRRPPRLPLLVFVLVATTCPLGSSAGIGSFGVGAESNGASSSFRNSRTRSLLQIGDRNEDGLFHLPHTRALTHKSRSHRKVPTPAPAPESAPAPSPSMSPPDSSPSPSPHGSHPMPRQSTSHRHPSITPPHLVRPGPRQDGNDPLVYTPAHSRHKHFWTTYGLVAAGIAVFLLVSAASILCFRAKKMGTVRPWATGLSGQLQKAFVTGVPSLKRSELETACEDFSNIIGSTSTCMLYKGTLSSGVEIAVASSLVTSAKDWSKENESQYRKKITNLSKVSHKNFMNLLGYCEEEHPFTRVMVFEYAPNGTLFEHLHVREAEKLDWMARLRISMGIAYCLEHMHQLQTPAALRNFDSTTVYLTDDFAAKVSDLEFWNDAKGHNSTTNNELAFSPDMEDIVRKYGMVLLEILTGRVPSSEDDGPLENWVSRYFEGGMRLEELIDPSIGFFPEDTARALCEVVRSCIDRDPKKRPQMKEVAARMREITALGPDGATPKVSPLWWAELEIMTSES
Where a name gives a salt, the structure may show the parent alone.
READOUT: ΔTm at 10 µM (°C)

See these solved cases before continuing.
In [3]: df
Out[3]:
                                   molecule  recorded_result
0  CC[C@@H]1C(=O)N(C)c2cnc(Nc3ccc(C(=O)N[C@H]4CC[C@H](N5CCN(CC6CC6)CC5)CC4)cc3OC)nc2N1C(C)C [Volasertib (BI 6727)]           -0.282
1  Cc1cc(NC(=O)c2cccc(NC(=O)/C=C/CN(C)C)c2)ccc1Nc1nccc(-c2cccnc2)n1 [JNK-IN-8]           -0.326
2  O=c1cc(CN2CCOCC2)occ1OCCCCCSc1ccnc2cc(C(F)(F)F)ccc12 [EHT 1864]           -0.298
3  CN([C@@H](Cc1ccc(OS(=O)(=O)c2cccc3cnccc23)cc1)C(=O)N1CCN(c2ccccc2)CC1)S(=O)(=O)c1cccc2cnccc12 [KN-62]            -1.15
4  COc1cc2ncnc(Nc3cccc(Cl)c3)c2cc1OC [AG-1478 (Tyrphostin AG-1478)]           -0.424

[1] CCOc1cc(N2CCC(O)CC2)ccc1Nc1ncc2c(n1)N(C)c1ccccc1C(=O)N2C [XMD8-92]
[2] CC(C)N(CCC(=O)c1ccc2ccccc2c1)Cc1ccccc1 [ZM 39923 HCl]
Q) Of the two listed items, which has the higher ΔTm at 10 µM? First: 1 Second: 2 Bench note: the answer is the label of the chosen record.
A) 1

---

biological target: ZmDRIK1-R187-P492 (Zea mays); construct: kinase domain, R187-P492; assay: biochemical; conditions: read-out: dTm B, DSF, Boltzmann fit, 0.1% DMSO
READOUT: ΔTm at 10 µM (°C)

See these solved cases before continuing.
>>> df
                                   compound       readout  recorded_result
0  COc1cc(N2CCC(N3CCN(C)CC3)CC2)ccc1Nc1ncc(Cl)c(Nc2ccccc2P(C)(C)=O)n1 [AP26113]  ΔTm at 10 µM           -0.259
1  Cc1ccc(NC(=O)c2ccc(CN3CCN(C)CC3)cc2)cc1Nc1nc(-c2cccnc2)cs1 [Masitinib (AB1010)]  ΔTm at 10 µM           -0.246
2  O=c1cc(N2CCOCC2)oc2c(-c3cccc4c3sc3ccccc34)cccc12 [NU7441 (KU-57788)]  ΔTm at 10 µM           -0.309
3  Cn1cc(-c2ccc3ncc(Cc4ccc5ncccc5c4)n3n2)cn1 [NVP-BVU972]  ΔTm at 10 µM           -0.283

[P] CCn1c(N)c(C(=O)NC)c(=O)c2ccc(C#C[C@@](C)(O)COC)nc21 [SAR131675]
[Q] COc1cc(Nc2ncc3c(n2)-c2ccc(Cl)cc2C(c2c(F)cccc2OC)=NC3)ccc1C(=O)O [Alisertib (MLN8237)]
[R] C=CC(=O)Nc1cccc(Nc2nc(Nc3ccc(N4CCN(C(C)=O)CC4)cc3OC)ncc2C(F)(F)F)c1 [CO-1686 (AVL-301)]
[S] CCc1ccc(C=C2SC(=S)NC2=O)cc1 [10058-F4]
Q) Would you mind ranking these compounds by ascending ΔTm at 10 µM? Give the order by naming the labels one after another as requested.
A) S, Q, R, P
(S: -0.741 °C, Q: -0.494 °C, R: -0.278 °C, P: -0.181 °C)

---

target: ZmDRIK1-K217-S514 (Zea mays, UniProt C0P4K9); construct: kinase domain, K217-S514; assay: biochemical; settings: read-out: dTm B, sheet ZmDRIK1-K217-S514;; DSF, Boltzmann fit, 0.1% DMSO
READOUT: ΔTm at 10 µM (°C)

In [3]: df
Out[3]:
                                   compound       readout  recorded_result
0  Cc1ccc(S(=O)(=O)/C=C/C#N)cc1 [BAY 11-7082]  ΔTm at 10 µM           -0.963
1  CNC(=O)c1cc(COc2nnc(Nc3ccc(Cl)cc3)c3ccoc23)ccn1 [Telatinib]  ΔTm at 10 µM           -0.252
2  COC(=O)c1ccc2c(c1)NC(=O)/C2=C(\Nc1ccc(N(C)C(=O)CN2CCN(C)CC2)cc1)c1ccccc1 [Nintedanib (BIBF 1120)]  ΔTm at 10 µM           -0.223

[a] Cc1ccc(-n2nc(C(C)(C)C)cc2NC(=O)Nc2ccc(OCCN3CCOCC3)c3ccccc23)cc1 [BIRB 796 (Doramapimod)]
[b] Cc1cc(Nc2ncnc3ccc(-c4ccc(CNCCS(C)(=O)=O)o4)cc23)ccc1Oc1ccn2ncnc2c1 [HER2-Inhibitor-1]
Q) Of the two listed items, which has the higher ΔTm at 10 µM? First: a Second: b Bench note: the answer is the label of the chosen record.
A) b

---

target: ZmDRIK1-K217-S514 (Zea mays); construct: kinase domain, K217-S514; test: biochemical; details: read-out: dTm B, sheet ZmDRIK1-K217-S514;; DSF, Boltzmann fit, 0.1% DMSO
READOUT: ΔTm at 10 µM (°C)

                                   compound  recorded_result
0  CCN(CCO)CCCOc1ccc2c(Nc3cc(CC(=O)Nc4cccc(F)c4)[nH]n3)ncnc2c1 [Barasertib (AZD1152-HQPA)]           -0.253
1  CC(C)(O)CC(=O)NCCn1ccc2ncnc(Nc3ccc(Oc4cccc(C(F)(F)F)c4)c(Cl)c3)c21 [TAK-285]             1.35

[I] CC(C)(C)c1cnc(CSc2cnc(NC(=O)C3CCNCC3)s2)o1 [SNS-032 (BMS-387032)]
[II] C=CC(=O)N1CCC[C@@H](n2nc(-c3ccc(Oc4ccccc4)cc3)c3c(N)ncnc32)C1 [Ibrutinib (PCI-32765)]
[III] COc1ccc2cc(-c3nc(-c4ccc([S+](C)[O-])cc4)[nH]c3-c3ccncc3)ccc2c1 (centres unmarked) [Tie2 kinase inhibitor]
[IV] C1=N/C2=N/c3ccc(OCCN4CCCC4)c(c3)COC/C=C/COCc3cccc(c3)C(=C1)N2 [Pacritinib (SB1518)]
Q) Rank by ΔTm at 10 µM (largest to smallest). Give the order by naming the labels one after another as requested.
A) IV, I, II, III
(IV: 0.03 °C, I: -0.203 °C, II: -0.359 °C, III: -4.75 °C)

---

biological target: ZmDRIK1-K217-P492 (Zea mays, UniProt C0P4K9); construct: kinase domain, K217-P492; experiment: biochemical; conditions: read-out: dTm B, sheet ZmDRIK1-K217-P492;; DSF, Boltzmann fit, 0.1% DMSO
Sequence (C0P4K9 1-514): as above
READOUT: ΔTm at 10 µM (°C)

See these solved cases before continuing.
In [3]: df
Out[3]:
                                   molecule  recorded_result
0  Cc1cc2c(F)c(Oc3ncnn4cc(OC[C@@H](C)O)c(C)c34)ccc2[nH]1 [Brivanib (BMS-540215)]           -0.796
1  COc1cc2nccc(Oc3ccc(NC(=O)NC4CC4)c(Cl)c3)c2cc1C(N)=O [Lenvatinib (E7080)]            -1.02

[1] CS(=O)(=O)N1CCN(Cc2cc3nc(-c4cccc5[nH]ncc45)nc(N4CCOCC4)c3s2)CC1 [GDC-0941]
[2] CCN1CCN(Cc2ccc(Nc3ncc(F)c(-c4cc(F)c5nc(C)n(C(C)C)c5c4)n3)nc2)CC1 [LY2835219]
[3] CNC(=O)c1nn(C)c2c1C(C)(C)Cc1cnc(Nc3ccc(N4CCN(C)CC4)cc3)nc1-2 [Milciclib (PHA-848125)]
Q) Would you mind ranking these molecules by ascending ΔTm at 10 µM? Give the order by naming the labels one after another as requested.
A) 2, 1, 3

---

biological target: ZmDRIK1-R187-P492 (Zea mays); construct: kinase domain, R187-P492; experiment: biochemical; details: read-out: dTm B, DSF, Boltzmann fit, 0.1% DMSO
READOUT: ΔTm at 10 µM (°C)

See these solved cases before continuing.
>>> df
                               entry_smiles  recorded_result
0  Cc1nc(Nc2n[nH]c3c2CN(C(=O)N[C@H](CN(C)C)c2ccccc2)C3(C)C)c2sccc2n1           -0.393
1  Cc1cc(Nc2nc(N[C@@H](C)c3ncc(F)cn3)ncc2Cl)[nH]n1           -0.161

[A] CCN(CC)CCCCNc1ncc2cc(-c3cc(OC)cc(OC)c3)c(NC(=O)NC(C)(C)C)nc2n1
[B] O=C(/C=C/c1ccc(O)c(O)c1)c1ccc(O)cc1O
Q) Of the two listed items, which has the higher ΔTm at 10 µM? First: A Second: B Bench note: the answer is the label of the chosen record.
A) B
(B: 0.882 °C, A: -0.212 °C)
